These measurements were taken from the nanobody polyreactivity screen of Harvey et al. (2022).

# Test name: yeast display, Sf9 membrane polyspecificity reagent, FACS + sequencing; frameworks hold sequencing errors
Measurement name: polyreactivity (PSR sort gate)

Known polyreactivity (PSR sort gate) results, listed for orientation:
| Sequence string | polyreactivity (PSR sort gate) |
| --- | --- |
| QVQLVESGGGLVQAGGSLRLSCAASGIIFEYYDMGWYRQAPGKERELVAAIDSGGSTYYADSVKGRFTISRDNAKNTVYLQMNSLKPEDTAVYYCAAETVRYEWGESPAALFDYWGQGTQVTVSS | low polyreactivity |
| QVQLVESGGGLVQAGGSLRLSCAASGITFYRYVMGWYRQAPGKERELVAAISDSTGSTYYADSVKGRFTISRDNAKNTVYLQMNSLKPEDTAVYYCAAGWFYATYWRFYYWGQGTQVTVSS | low polyreactivity |
| QVQLVESGGGLVQAGGSLRLICAASGIIFGIYDMGWYRQAPGKERELVAAIRRSGGSTYYADSVKGRFTISRDNAKNTVYLQMNSLKPEDTAVYYCATDAWYYSQTNHDYWGQGTQVTVSS | low polyreactivity |
| QVQLVESGGGLVQAGGSLRLSCAASGSTFRYYAMGWYRQAPGKERELVAAISGTGSTYYADSVKGRFTISRDNAKNTVSLQMNSLKPEDTAVYYCGAYPRGSQRYNYWGQGTQVTVSS | high polyreactivity |

Please turn your attention to the following entry.
Given the sequence `QVQLEESGGGLVQAGGRLRLSCAASGRIFSRNAMGGSRTATGKERELVAAISSSTGSTYYADSVKGRFTISRDNAKKTVYLQMNSLKPEDTAVYYCAARYWGDYFTEMNYWGQGTQVTVSS` , what is its reported polyreactivity (PSR sort gate)?
high polyreactivity

====

# Test name: yeast display, Sf9 membrane polyspecificity reagent, FACS + sequencing; frameworks hold sequencing errors

| Sequence string | polyreactivity (PSR sort gate) |
| --- | --- |
| QVQLVESGGGLVQAGGSLPLSCAASGRTFPVYAMGWYRQAPGKERELVARINSGGRTTDADSVKGRFTISRDNAKNTVYLPKNSLKPEDSAVYYCNADSTYFRFDYWGQGTQVTVSS | high polyreactivity |
| QVQLVESGGGLVQAGGSLRLSCAASGRIFSFYSMGWYRQAPAKERELVATISKRAGSTYYADSVKGRFTISRDNAKNTVYLQMNSLKPEDTAVYYCAARKWYYASSRWRDYWGQGTQVTVSS | high polyreactivity |

====

# Test name: yeast display, Sf9 membrane polyspecificity reagent, FACS + sequencing; frameworks hold sequencing errors
Measurement name: polyreactivity (PSR sort gate)

| Sequence string | Measurement name | Val |
| --- | --- | --- |
| QVQLVESGGGLVQAGGSLRLSCAASGFIFWDYAMGWNRQAPRKERELVAAISDSGGDTYYADSVKGRFTISRDNAKNTVYLQMNSLIPEDTAVYYCAADVVLWVFRGQQYDYWGQGTQVTVSS | polyreactivity (PSR sort gate) | low polyreactivity |
| QVQLVESGGCLVQAGGSLRLSCAASGFIFAYYAMGWYRQARGKERELVAAISYSGSTKYSDSVKGRFTISRDNSKNTVNLQMNSLKPEDTAVYYCAADRVWGTPQAYVPSQFDYWGQGTQVTVSS | polyreactivity (PSR sort gate) | low polyreactivity |

====

# Test name: yeast display, Sf9 membrane polyspecificity reagent, FACS + sequencing; frameworks hold sequencing errors
Measurement name: polyreactivity (PSR sort gate)

| Sequence string | Val |
| --- | --- |
| QVQLVESGGGLVQAGGSLRLSCAASGRTFTINTMGWYRQAPGKERELVAAITVSGGSTYYADSVKGRFTISRDNAKNTVYLQMNSLKPEDTAVYYCAAQRSYVNLGQTHDYWGQGTQVNVSS | low polyreactivity |
| QVQLVESGGGLVQAGGSLRLSCAGSGSTFLYYAMGWYRQAPGKERELVAVITYSDGGTYYADSVKGRFTISRDNAKNTVYLEMNSLKPEDTAVYYCAKDYRAYAGHYTWTWHEYGYWGQGTQVTVSS | low polyreactivity |

====

# Test name: yeast display, Sf9 membrane polyspecificity reagent, FACS + sequencing; frameworks hold sequencing errors

| Sequence string | polyreactivity (PSR sort gate) |
| --- | --- |
| QVQLVESGGGLVQAGGRLRLSCAASGIIFRWYTMGWYRQAPGKERELVAAISTSTGSTYYADSVKGRFTISRDNAKNTVYLQMNSLKPEDSAVYYCAAVYAYWNYESYYWGQGTQVTVSS | high polyreactivity |
| QVQLVESGGGLVQAGGSLRLSCAASGLIFIVYAMGWYRQAPGKERELVAAISWSGGSTYYADSVKGRFTISRDNAKNTVYLQMNSLKPEDTAVYYCAAESYGVWDYEYWGQGTQVTVSS | high polyreactivity |

====

# Test name: yeast display, Sf9 membrane polyspecificity reagent, FACS + sequencing; frameworks hold sequencing errors
Measurement name: polyreactivity (PSR sort gate)

Known results for sequences:
| Sequence string | polyreactivity (PSR sort gate) |
| --- | --- |
| QVQLVETGGGLVQAGGSLRLSCAASGYIFYVYAMGWYRQPPGKERELVAAINSGDITYYADSVKGRFTISRDNAKNTVYLQMNRLKPEDTAVYFGATVLILIYDYWGQGTQVTVSS | low polyreactivity |
| QVQLVESGGGLVQAGGSLRLSCAASGSIFWWNAMGWYRQAPGKERELVGAITVSGSSTHYADSVKGRFTISRDNAKNTVYLQMNSMKPEDTAVYYWGQGTQVTVSS | low polyreactivity |
| QVQLVESGGGLVQAGGSLRLSCAASGSIIYTNAMGWYRQAPGKERELVAAITGTTTTNYADSVKGRFTISRDNAKNTVYLQMNSLKPEDPAVYYCNADYDRSRVYYSVELYDYWGQGTQVTVSS | low polyreactivity |
| QVQLVESGGGLVQAGGSLRLSCAASGSTFGNAMGWYTQAPGKEREWVAAISSRGDRTYYADSVKGRFTISRDNAKNTGYLQMNSLKPEDTAVYYCAKDGYPNKYDYWGQGTQVTVSS | high polyreactivity |
| QVQLVESGGGLVQAGGSLRLSCAASGSIFPTYAMGWYRQAPGKERELVAAIRSGSNTYYADSVKGRFTISRDNAKNTVYLQMNSLKPEDTAVYYCNVGPQRKYPGRRTVPFGYWGQGTQVTVSS | low polyreactivity |

Form field: reported polyreactivity (PSR sort gate) of `QVQLVESGGGLVQAGGSLRLSCAASGITFENYAMGWYRQAPGKETELVASITRSGGNTYYADSVKGRFTISRDTAKNSVYLQMNSLKPEDTAVYDCAKDSGLNDDFIYWGQGTQVTVSS`
low polyreactivity

Given `QVQLVESVGGLVQAGGSLRLSCAASGSTYDHNAMGWSRHAPGKERELVAAISSDGSTNYADSVKGRFTISRDNAKNTVYLQMNSLKPEDTGVYYCNADGVYLGDYEYWGQGTQVTVSS` , state its recorded polyreactivity (PSR sort gate).
low polyreactivity

What value of polyreactivity (PSR sort gate) has been reported for the following sequence? `QVQLVESGGGLVQAGGSLRLSCAASGSIFYQNAMGWYRQAPGKERELVAAITSDGSTYYADSVKGRFTISRDNAKNTVYLQMNSLKPEDTAVYYCAAEYYGHRYDYWGQGTQVTVSS`
low polyreactivity

Endpoint output: polyreactivity (PSR sort gate) of `QVQLVESGGGLVQAGGSLRLSCAASGITFDYYAMGWYRQAPGKERELVAAITSRGGSTYYADSVKGRFTISRDNAKNTVYLQMNSLKPEDTAVYYCAAVRSGYYNYWGQGTQVTVSS` . Value?
high polyreactivity

Please look up its polyreactivity (PSR sort gate): `QVQLVESGGGLVQAGGSLRLSSAASGFTFQGYVMGWYRQAPGKERELVAAISWSGGSTYYADSVKGRFTISRDTAKNTVYLQMNSLKPEDTAVYYCAAVTRFYTKYYWGQGTQVTVSS`
high polyreactivity

Fill blank: measured polyreactivity (PSR sort gate) of the sequence `QVQLVESGGGLVQAGGSLRLSCAASGFTFSYYAMGWYRQAPGKERELVAAISFNGGRTYYADSVKGRFTISRDNAKNTVYLQMISLKPEDTAVYYCAARSLRPETLGDYWGQGTQVTVSS` is ____.
high polyreactivity

====

# Test name: yeast display, Sf9 membrane polyspecificity reagent, FACS + sequencing; frameworks hold sequencing errors
Measurement name: polyreactivity (PSR sort gate)

| Sequence string | polyreactivity (PSR sort gate) |
| --- | --- |
| QVQLVESGEGLVQAGGSLRLICAASGRNFYSNAMVWYRQAPGKERELVAAMSYSGGSTYYADSVKGRFTISRDNAKNTVYLQMNSLKPEDTAVYYCAADTTYWPYWGTYVVYDYWGQGTQVTVSS | low polyreactivity |
| QVQLVESGGGLVQAGGSLRLSCAASGSTFGYNAMGWYRQAPGKERELVAGITGSGTRTYYADSVKGRFTISRDNAKNTVYLQMNSLKPEDTAVYYCAATPTRRYYRQSAYDYWGQGTQVTVSS | high polyreactivity |
| QVQLVESGGGLVQAGGSLRLSCAASGSIFQIYAMGWYRQAPGKESELVATINRGDNTYYADSVKGRFTISRDNAKNTVYLQMHSLTPEDSAVYYCNVDRQVITGRYIGDYWGQGTLVTVSS | low polyreactivity |
| QVQLVESGGGLVQAGGSLRLSCAASGSIFLNYAMGWYRQAPGKERELVAAISYRVGRTYYADSVKGRFTISRDNAKNTVYLQMNSLKPEDTAVYYCAADSRSPGHDYWGQGTQVTVSS | high polyreactivity |

Would you kindly look at the next entry?
I would be grateful if you could share the reported polyreactivity (PSR sort gate) for `QVQLVESGGGLVQAGGSLRLSCAASGFTFRFNAMGWYRQAPGKERELVAAIRYSSGSTYYADSVKGRFTISRDNAKNTVYLEMNSLKPEDTAVYYCAAEQDYNRGYVTGRYYYWGQGTQVTVSS` .
high polyreactivity
